# Ki measurements, system: JAK-2 enzyme (Homo sapiens)
# Sequence (O60674 whole entry): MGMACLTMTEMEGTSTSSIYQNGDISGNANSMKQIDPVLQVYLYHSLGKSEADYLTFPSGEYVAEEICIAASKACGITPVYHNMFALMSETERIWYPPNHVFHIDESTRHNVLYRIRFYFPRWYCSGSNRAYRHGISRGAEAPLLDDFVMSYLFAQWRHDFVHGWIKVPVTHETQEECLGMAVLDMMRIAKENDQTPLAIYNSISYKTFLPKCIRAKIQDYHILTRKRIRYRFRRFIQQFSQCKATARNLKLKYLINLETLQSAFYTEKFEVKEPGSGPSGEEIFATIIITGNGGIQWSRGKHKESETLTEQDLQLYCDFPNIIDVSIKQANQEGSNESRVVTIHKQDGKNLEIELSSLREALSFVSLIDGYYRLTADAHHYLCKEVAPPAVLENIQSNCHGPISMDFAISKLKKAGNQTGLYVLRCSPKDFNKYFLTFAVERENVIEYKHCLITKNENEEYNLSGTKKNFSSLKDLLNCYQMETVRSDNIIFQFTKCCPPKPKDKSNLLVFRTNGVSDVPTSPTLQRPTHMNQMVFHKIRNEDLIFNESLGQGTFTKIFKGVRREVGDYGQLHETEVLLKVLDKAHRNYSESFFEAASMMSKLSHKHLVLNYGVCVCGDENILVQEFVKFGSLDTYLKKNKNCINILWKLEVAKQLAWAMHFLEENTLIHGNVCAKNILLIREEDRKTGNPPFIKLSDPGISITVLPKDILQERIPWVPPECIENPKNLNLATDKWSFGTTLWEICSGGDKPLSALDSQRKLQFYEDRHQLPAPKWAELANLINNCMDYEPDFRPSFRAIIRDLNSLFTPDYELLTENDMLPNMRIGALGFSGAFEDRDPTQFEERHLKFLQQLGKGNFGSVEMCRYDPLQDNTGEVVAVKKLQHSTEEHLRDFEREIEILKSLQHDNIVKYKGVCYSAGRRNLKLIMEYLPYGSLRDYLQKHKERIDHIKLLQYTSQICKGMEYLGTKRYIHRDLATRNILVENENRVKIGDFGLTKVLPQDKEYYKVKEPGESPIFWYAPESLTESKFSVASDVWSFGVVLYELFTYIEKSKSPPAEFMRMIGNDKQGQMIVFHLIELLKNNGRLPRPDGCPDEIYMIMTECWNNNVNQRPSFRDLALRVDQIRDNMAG
Property Measured: Ki

| Smi | Property Measured | Result |
| --- | --- | --- |
| C[C@H](Nc1cc(-c2c(N)nn3cccnc23)nc(OCCOC(C)(C)C)n1)c1ccc(F)cc1 | Ki | 0.01 to 0.1 µM |
| C[C@H](Nc1cc(-c2cnn3cccnc23)nc(OCCN2CCCCCC2)n1)c1ccc(F)cc1F | Ki | < 0.01 µM |
| Nc1nn2cccnc2c1-c1cc(NCc2ccco2)ncn1 | Ki | 0.01 to 0.1 µM |
| CC(C)[C@H](Nc1cc(-c2c(N)nn3cccnc23)nc(N2CCOCC2)n1)c1ccc(F)cc1F | Ki | 0.01 to 0.1 µM |
| CCCOc1nc(N[C@@H](C)c2ccc(F)cc2)cc(-c2c(N)nn3cccnc23)n1 | Ki | < 0.01 µM |
| CSc1nc(N[C@@H](C)c2ccc(F)cc2)cc(-c2c(N)nn3cccnc23)n1 | Ki | < 0.01 µM |
| Nc1nn2cccnc2c1-c1cc(N[C@@H]2CCCc3ccccc32)ncn1 | Ki | 0.01 to 0.1 µM |

----------
Biological target: JAK3 (Homo sapiens, UniProt P52333)
Sequence (P52333 1-1124): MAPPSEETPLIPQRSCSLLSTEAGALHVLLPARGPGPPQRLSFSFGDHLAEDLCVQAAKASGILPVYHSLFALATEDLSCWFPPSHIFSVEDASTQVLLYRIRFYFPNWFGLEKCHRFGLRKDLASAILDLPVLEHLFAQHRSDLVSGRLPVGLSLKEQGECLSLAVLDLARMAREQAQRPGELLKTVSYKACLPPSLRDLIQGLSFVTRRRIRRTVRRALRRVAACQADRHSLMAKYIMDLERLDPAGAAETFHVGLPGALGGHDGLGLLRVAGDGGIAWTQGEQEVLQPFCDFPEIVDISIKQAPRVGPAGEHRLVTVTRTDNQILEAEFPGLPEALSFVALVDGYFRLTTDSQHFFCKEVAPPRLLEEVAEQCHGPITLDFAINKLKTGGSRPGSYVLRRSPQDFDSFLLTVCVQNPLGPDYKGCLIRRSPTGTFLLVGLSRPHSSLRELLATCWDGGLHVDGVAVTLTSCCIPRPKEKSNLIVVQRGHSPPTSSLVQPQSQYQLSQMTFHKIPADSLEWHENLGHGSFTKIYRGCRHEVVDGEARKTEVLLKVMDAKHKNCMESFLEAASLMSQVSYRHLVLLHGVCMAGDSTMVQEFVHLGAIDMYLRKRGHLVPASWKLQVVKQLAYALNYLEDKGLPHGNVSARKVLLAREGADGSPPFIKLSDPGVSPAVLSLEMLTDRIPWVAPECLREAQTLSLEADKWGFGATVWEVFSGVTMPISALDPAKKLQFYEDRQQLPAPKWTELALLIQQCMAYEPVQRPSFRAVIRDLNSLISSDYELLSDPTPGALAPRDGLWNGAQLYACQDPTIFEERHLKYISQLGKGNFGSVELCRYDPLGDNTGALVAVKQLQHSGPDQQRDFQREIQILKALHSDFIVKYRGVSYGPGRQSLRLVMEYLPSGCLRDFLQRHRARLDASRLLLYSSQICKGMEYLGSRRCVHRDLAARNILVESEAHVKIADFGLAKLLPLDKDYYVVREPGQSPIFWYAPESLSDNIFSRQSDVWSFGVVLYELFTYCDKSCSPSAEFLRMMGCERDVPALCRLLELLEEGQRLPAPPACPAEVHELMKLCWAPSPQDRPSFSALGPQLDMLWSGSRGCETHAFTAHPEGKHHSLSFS
pKi: −log10 of the molar value.

| Smi | pKi |
| --- | --- |
| CC[C@H](Nc1cc(-c2c(N)nn3ccc(C)nc23)ncn1)c1ccc(F)c(F)c1 | 7.00 to 8.00 |
| COCCOc1nc(N[C@@H](C)c2ccc(F)cc2)cc(-c2c(N)nn3cccnc23)n1 | 7.00 to 8.00 |
| C[C@H](Nc1cc(-c2c(N)nn3cccnc23)nc(OCC2CCCC2)n1)c1ccc(F)cc1 | 6.30 to 7.00 |
